Biological target: Cdk2/cyclin A binary complex (human, UniProt P24941 1-298; P20248 173-432)
Assay: single-molecule fluorescence anisotropy (smFA); BODIPY-labelled single-Cys p27, not phosphorylated, free or in complex with Cdk2/cyclin A, diluted to pM; 20 mM HEPES pH 7.5, 300 mM NaCl, 40 µM TROLOX; average anisotropy of free and complexed p27 compared
Details: both partners purified
quantity-measured: binding result

Data request: What value of binding result has been reported for the following binder? p27-C40 (Cys-less full-length p27-Y89F with E40C, labelled with BODIPY-FL) (natural protein, BODIPY-FL on Cys 40, p27Kip1 (p27), human, residues 1-198 (full length), Y89F, Cys-less background, Glu 40 to Cys; also called p27-40C; source: E. coli, purified (Ni-NTA, His-tag removed with thrombin, reverse-phase HPLC over C4); labelled with BODIPY-FL) MSNVRVSNGSPSLERMDARQAEHPKPSAARNLFGPVDHECLTRDLEKHARDMEEASQRKWNFDFQNHKPLEGKYEWQEVEKGSLPEFYFRPPRPPKGASKVPAQESQDVSGSRPAAPLIGAPANSEDTHLVDPKTDPSDSQTGLAEQSAGIRKRPATDDSSTQNKRANRTEENVSDGSPNAGSVEQTPKKPGLRRRQT
Data returned: binds

Data request: What value of binding result has been reported for the following binder? p27-C93 (Cys-less full-length p27-Y89F with R93C, labelled with BODIPY-FL) (natural protein, BODIPY-FL on Cys 93, p27Kip1 (p27), human, residues 1-198 (full length), Y89F, Cys-less background, Arg 93 to Cys; also called p27-93C; source: E. coli, purified (Ni-NTA, His-tag removed with thrombin, reverse-phase HPLC over C4); labelled with BODIPY-FL) MSNVRVSNGSPSLERMDARQAEHPKPSAARNLFGPVDHEELTRDLEKHARDMEEASQRKWNFDFQNHKPLEGKYEWQEVEKGSLPEFYFRPPCPPKGASKVPAQESQDVSGSRPAAPLIGAPANSEDTHLVDPKTDPSDSQTGLAEQSAGIRKRPATDDSSTQNKRANRTEENVSDGSPNAGSVEQTPKKPGLRRRQT
Data returned: binds

Data request: What value of binding result has been reported for the following binder? p27-C75 (Cys-less full-length p27-Y89F with E75C, labelled with BODIPY-FL) (natural protein, BODIPY-FL on Cys 75, p27Kip1 (p27), human, residues 1-198 (full length), Y89F, Cys-less background, Glu 75 to Cys; also called p27-75C; source: E. coli, purified (Ni-NTA, His-tag removed with thrombin, reverse-phase HPLC over C4); labelled with BODIPY-FL) MSNVRVSNGSPSLERMDARQAEHPKPSAARNLFGPVDHEELTRDLEKHARDMEEASQRKWNFDFQNHKPLEGKYCWQEVEKGSLPEFYFRPPRPPKGASKVPAQESQDVSGSRPAAPLIGAPANSEDTHLVDPKTDPSDSQTGLAEQSAGIRKRPATDDSSTQNKRANRTEENVSDGSPNAGSVEQTPKKPGLRRRQT
Data returned: binds
